# EXPERIMENT SUMMARY: NCI Yeast Anticancer Drug Screen. Data for the mec2-1 strain (AID 157)
# ASSAY SETUP: S. cerevisiae mec2-1 strain, at 5.0 µM (retest, dose inferred, filed as 0.5), hits give high values
The panel holds about 79,000 compounds, 15% with a hit somewhere; the sample as a whole holds those more often.
PROPERTY: growth inhibition (%)
Answer in %, number only, no unit symbol.

Task: Recorded growth inhibition for Cc1ccc(SCN2CCCCC2)cc1 (tested in a mixture with another compound) , please?
Result: 1

Task: Recorded growth inhibition of `CCC(=O)Nc1ccc(NC(C)=O)cc1` , please.
Result: -9

Task: Need growth inhibition, item `c1ccc(-c2ccc(-c3cnc(-c4ccc(-c5ccccc5)cc4)o3)cc2)cc1`
Result: 3

Task: So what's the measured growth inhibition for this one? `COc1ccc2cc(Br)ccc2c1`
Result: 6

Task: Find the recorded growth inhibition belonging to `CSC1=NSC(c2ccccc2)=C(c2ccccc2)S1` and report it.
Result: -15

Task: Entry under review: `c1ccc(N=C2SC3=NCCN3C2=Nc2ccccc2)cc1` . Reported growth inhibition?
Result: 7

---

# EXPERIMENT SUMMARY: NCI Yeast Anticancer Drug Screen. Data for the rad50 strain (AID 155);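 note: 0% = growth of vehicle-only cultures of the same strain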
# ASSAY SETUP: S. cerevisiae rad50 strain growth inhibition; at 50.0 µM
# Protocol: Growth inhibition of yeast strains with defined genetic alterations is measured as a screen for potential anti-cancer activity. Selected strains with alterations in DNA damage repair or cell cycle control were exposed to compounds and growth inhibition was measured relative to vehicle treated controls. The strain used in this assay is rad50
The panel holds about 79,000 compounds, 15% with a hit somewhere; the sample as a whole holds those more often. Activity calls are given as the source filed them. Cut-off read from the data, not from the text of the source: active = growth inhibition above about 70%; inactive = the rest.
Entry note: the call must match one of active, inactive

Task: Please share the test call associated with `CCOC(=O)C[n+]1c(C)sc2ccccc21` .
Result: active

Task: Each compound tested received a call. Report the one for `Fc1ccc2nncc(SCc3ccccc3)c2c1` .
Result: active

Task: Outcome logged for `CC(=O)c1cc(I)c(O)c2ncccc12` in this assay:
Result: active

Task: Which outcome did this test record for the compound `COC(=O)Cc1cn[nH]c1C(=O)OC` ?
Result: inactive

Task: Called result for `Cc1cccc2c(=O)c3ccccc3oc12`
Result: inactive

Task: Fill in: this test's call for `c1ccc(Nc2nnc3nc(-c4ccccc4)c(-c4ccccc4)nn23)cc1` is ___
Result: inactive

Task: Hello, I am checking results. What call was entered for `CCCCCCCCCCCCCCCC(=O)NCC[N+](CC)(CC)Cc1ccc(C[N+](CC)(CC)CCNC(=O)CCCCCCCCCCCCCCC)cc1` ?
Result: active

Task: I'd appreciate the recorded outcome for `Cc1c(N)ccc(O)c1C` from this test.
Result: active

Task: Dear all, I need the recorded test outcome for `N#Cc1c(-c2ccc(Cl)c(Cl)c2)c(-c2ccc(Cl)c(Cl)c2)nn(CCO)c1=O` , thank you.
Result: active

Task: Given CC(SC1=CC(=O)c2c(Cl)ccc(O)c2C1=O)C(=O)O (stereo unspecified) , state the outcome it received in this test.
Result: inactive

Task: Called result for COc1cccc2c1C(=O)c1c(O)c3c(c(O)c1C2=O)C[C@@](O)(C(O)CO)C[C@@H]3OC1CC(N(Cc2ccccc2)Cc2ccccc2)C(O)C(C)O1 (stereo partly specified)
Result: active

---

# EXPERIMENT SUMMARY: NCI Yeast Anticancer Drug Screen. Data for the bub3 strain (AID 167)
# ASSAY SETUP: S. cerevisiae bub3 mutant strain, at 5.0 µM (retest, dose inferred, filed as 0.5), hits give high values
# Experimental: Growth inhibition of yeast strains with defined genetic alterations is measured as a screen for potential anti-cancer activity. Selected strains with alterations in DNA damage repair or cell cycle control were exposed to compounds and growth inhibition was measured relative to vehicle treated controls. The strain used in this assay is bub3
This is part of a sample that, as a whole, favours compounds with a hit. Of some 79,000 tested, about 15% had one in any assay.
PROPERTY: growth inhibition (%)
State the answer as a number, implicitly in %.

Task: growth inhibition for CC[C@@]1(O)C[C@H](OC2CC(N(C)C)C(OC3CC(O)C(OC4CCC(=O)C(C)O4)C(C)O3)C(C)O2)c2c(cc3c(c2O)C(=O)c2c(O)cccc2C3=O)[C@H]1C(=O)OC (stereo not given in full) ?
Result: 95

Task: Any idea what growth inhibition was measured for `Cc1cc(Cl)c2cc(Cc3ccc(Br)cc3)ccc2n1` ?
Result: 4

Task: What value of measured growth inhibition is listed for `O=C(/C=C(\OB(F)F)c1ccccc1)c1ccccc1` ?
Result: 2

Task: What measured growth inhibition goes with `O=C(Nc1ccc2c(c1)Cc1cc([N+](=O)[O-])c(F)cc1-2)C(F)(F)F` ?
Result: -3

Task: Fill blank: measured growth inhibition of the molecule `CP(=O)(c1ccccc1)c1ccccc1` is ____.
Result: -22

Task: Sample COC1CCC(/C(C#N)=C/c2ccco2)CC1 (stereo not given) — what was its growth inhibition?
Result: 38

Task: Which measured growth inhibition value corresponds to `NC(=S)C(=S)N/C=C/c1nc2ccccc2[nH]c1=O` ?
Result: -7

Task: Which growth inhibition value is on record for `Cc1c2cc[n+]([O-])cc2c(C)c2c1oc1ccccc12` ?
Result: 32

Task: Query (molecule): `O=C(Nc1ccc(Cl)cc1)c1cccc([N+](=O)[O-])c1O` ; field requested: growth inhibition
Result: 6

Task: Sample `CS/C(=N\C(=S)N(C)C)N(c1ccccc1)c1nc(=[N+](C)C)ss1` — what was its growth inhibition?
Result: 27

Task: Entry `Cn1ncc2c(NCc3ccc(Cl)cc3)nc(Cl)nc21` : reported growth inhibition = ?
Result: 2

Task: What growth inhibition value was documented for this molecule, `Nc1c(NCc2ccccc2)ccc2ncccc12` ?
Result: 2

Task: What value of growth inhibition has been reported for the following molecule? `O=C1c2ccccc2C(=O)c2c(NCCNCCO)ccc(O)c21`
Result: 44

Task: Consider the molecule shown here: `O=C(O)c1c[nH]c2cc(Cl)ccc2c1=O` What is its recorded growth inhibition?
Result: 1

Task: Give its growth inhibition value. Item: `N#Cc1c(-c2ccc(Cl)c(Cl)c2)c(-c2ccc(Cl)c(Cl)c2)nn(CCO)c1=O`
Result: 43

Task: Any idea what its growth inhibition is? The molecule is `OC(C/C(=N\N=C(/CC(O)(C(F)(F)F)C(F)(F)F)c1ccccc1)c1ccccc1)(C(F)(F)F)C(F)(F)F`
Result: 1

Task: GET /values?readout=growth inhibition&item= CC(CN(C)C)C(/C=C/c1ccc(Cl)cc1)=N\NC(=O)c1ccccc1 (stereo not given)
Result: -3

Task: Reported growth inhibition, molecule `CCOC(=O)/C(=C\c1cccc(OC)c1)C(C)=O` : ____
Result: 23

Task: Could you share which growth inhibition value was measured for `COc1ccc(-c2c(C#N)c(S)n(NS(=O)(=O)c3ccc(C)cc3)c(=O)c2C#N)cc1` ?
Result: 58

Task: So what does the record say about growth inhibition for `Oc1cc(Br)ccc1/C=N/Nc1ccccn1` ?
Result: 0

Task: // growth inhibition lookup, key: `O=C1NCCCNCCCNCCCNC(=O)c2cccc1n2`
Result: 23

Task: Report growth inhibition for CC(SC1=CC(=O)c2c(Cl)ccc(O)c2C1=O)C(=O)O (stereo not given) please.
Result: 0

Task: What measured growth inhibition goes with `CCc1cccc(C(C)(C)C)c1NC(=S)N/C=C(\C#N)C(=O)c1ccc2ccccc2c1` ?
Result: -17

Task: Look up growth inhibition: O=C1C2C3C=CC(C2C(=O)N1CN1CCOCC1)C1C2C(=O)N(CN4CCOCC4)C(=O)C2C31 (stereo not given)
Result: 1

Task: Query (molecule): `CCOC(=O)c1c(C)n(C)c2c1nnc1ccccc12` ; field requested: growth inhibition
Result: 1

Task: Could you tell me which growth inhibition is on file for `Cc1ccc([Si](O)(c2ccc(C)cc2)c2ccc(C)cc2)cc1` ?
Result: 75

Task: Request the reported growth inhibition associated with CCCCCCCCC/C=C1\CCC(CN(C)C)C1=O (stereo not given)
Result: -24

Task: What value of growth inhibition has been recorded for this entry: `CC(=O)Oc1ccc(-c2ccc(Br)cc2)cc1`
Result: 20

Task: Reported growth inhibition, molecule `COc1cc(CC#N)c(NC(C)=O)cc1OC` : ____
Result: -7

Task: Field request: growth inhibition | item: C=CCN1CCC(OC(=O)C(O)(/C=C\CC)C2CCCC2)CC1 (stereo not given)
Result: 12

Task: Given `NC1CCCCC1N.O=S(=O)([O-])CCCN1CCOCC1.O=S(=O)([O-])CCCN1CCOCC1.[Pt+4]` , state its recorded growth inhibition.
Result: 10

Task: Which growth inhibition value belongs to `CSC(=S)N/N=C\C(C)=N/N=C(N)N` ?
Result: -4

Task: Need growth inhibition of CCC(c1ccc(OC)cc1)C(CC)c1ccc(O)c(CN(C)C)c1 (stereo not given) , thanks.
Result: 4

Task: Returns the measured growth inhibition for the input molecule. Input: `CC(C)OC(=O)Oc1c(Cl)c(Cl)c(Cl)c(Cl)c1Cl`
Result: 2

Task: May I ask what growth inhibition has been recorded for `COc1ccc(-c2nnc(C)nc2-c2ccc(OC)cc2)cc1` ?
Result: 14

Task: Given the entry O=P(OCCCl)(OCCCl)C(Nc1cccc2ccccc12)c1ccccc1 (stereo not given) , report its measured growth inhibition.
Result: 1

Task: Look up growth inhibition for this molecule: `C/C(=N\NS(=O)(=O)c1ccc(C)cc1)c1cc2ccccc2n1C`
Result: 31

Task: Any idea what growth inhibition was measured for `CCOC(=O)/C(=C\c1cccc([N+](=O)[O-])c1)C(C)=O` ?
Result: 62

Task: Sample `CCOC(=O)c1ccc2c(c1)Cc1cc([N+](=O)[O-])ccc1-2` — what was its growth inhibition?
Result: 43

Task: Item under review: `O=C(Oc1ccc(O)c2ccccc12)c1ccccc1` . Reported growth inhibition?
Result: -5

Task: I have this molecule here, CC1SC2(C(=O)Nc3ccc([N+](=O)[O-])cc32)N(c2ccc(Cl)cc2)C1=O (stereo not given) , and I need its recorded growth inhibition.
Result: 12

Task: Which growth inhibition value belongs to `C1=C(c2ccccc2)OC(c2ccccc2)=C[P+]1(c1ccccc1)c1ccccc1` ?
Result: 97

Task: Fill blank: measured growth inhibition of the molecule `COC(=O)c1ccc2ccccc2c1` is ____.
Result: 5

Task: Suppose we examine the molecule Clc1c(Cl)c(Cl)c(SC2C3CC4C(C3)C42)c(Cl)c1Cl (stereo not given) ; what growth inhibition value has been reported?
Result: 7

Task: # lookup: growth inhibition of `Oc1cc(Br)cc2cccnc12`
Result: 99
